# MEASUREMENT TARGET: human HSP90 alpha protein (HSP90 N-terminal protein, amino acids 2-236) (Homo sapiens (Human), UniProt P07900)
# ASSAY: Measurement of HSP90-binding activity (AlphaScreen competitive assay, biotin-labeled geldanamycin)
# EXPERIMENTAL SETUP: concentration inhibiting binding of biotin-labeled geldanamycin (40 nM) to purified HSP90 to 50% of control; read-out: HSP-binding activity IC50
ENDPOINT LABEL: pIC50
Quick note: pIC50 values are minus log10 of concentrations in mol/L.

Could you tell me which pIC50 is on file for CC(C)c1nn(-c2ccc(C(N)=O)c(NCC(C)(C)C)c2)c2nccc(-c3cnc4ccccc4c3)c12 ?
5.90

Could you tell me which pIC50 is on file for CC(C)c1nn(-c2ccc(C(N)=O)c(NC(C)(C)C)c2)c2nccc(-n3cnc(-c4cccnc4)c3)c12 ?
6.39

Could you tell me which pIC50 is on file for NC(=O)c1ccc(-n2nc(C(F)(F)F)c3c(-c4cnc5ccccc5c4)ccnc32)cc1N[C@H]1CC[C@H](O)CC1 ?
6.92

Could you tell me which pIC50 is on file for Cn1cc(-c2cn(-c3ccnc4c3c(C(F)(F)F)nn4-c3ccc(C(N)=O)cc3NCC(F)F)cn2)cn1 ?
7.00

Could you tell me which pIC50 is on file for Cn1cc(-c2cn(-c3ccnc4c3c(C(F)(F)F)nn4-c3ccc(C(N)=O)cc3C3CC3)cn2)cn1 ?
6.92

----------
# MEASUREMENT TARGET: human HSP90 alpha protein (HSP90 N-terminal protein, amino acids 2-236) (Homo sapiens (Human))
# ASSAY: Measurement of HSP90-binding activity (AlphaScreen competitive assay, biotin-labeled geldanamycin)
# EXPERIMENTAL SETUP: concentration inhibiting binding of biotin-labeled geldanamycin (40 nM) to purified HSP90 to 50% of control; read-out: HSP-binding activity IC50
Please respond with reported pIC50 for every item in the list.
Quick note: pIC50 values are minus log10 of concentrations in mol/L.

Could you tell me which pIC50 is on file for CNc1cc(-n2nc(C(C)C)c3c(-n4cnc(-c5cnn(C)c5)c4)ccnc32)ccc1C(N)=O ?
6.51

Could you tell me which pIC50 is on file for CC(C)c1nn(-c2ccc(C(N)=O)c(NC3CCC(O)CC3)c2)c2nccc(-n3cnc(-c4ccsc4)c3)c12 (stereo not shown) ?
6.37

Could you tell me which pIC50 is on file for CCc1cn(-c2ccc(C(N)=O)c(N[C@H]3CC[C@H](N)CC3)c2)c2nccc(-c3cnc4ccccc4c3)c12 ?
6.59

Could you tell me which pIC50 is on file for CC(C)c1nn(-c2ccc(C(N)=O)cc2C2CC2)c2nccc(-n3cnc(-c4cnn(C)c4)c3)c12 ?
6.85

Could you tell me which pIC50 is on file for CC(C)c1nn(-c2ccc(C(N)=O)c(NCCN3CCOCC3)c2)c2nccc(-c3cnc4ccccc4c3)c12 ?
6.48

Could you tell me which pIC50 is on file for CSCCCNc1cc(-n2nc(C(C)C)c3c(-c4cnc5ccccc5c4)ccnc32)ccc1C(N)=O ?
6.31

Could you tell me which pIC50 is on file for CC(C)c1nn(-c2ccc(C(N)=O)cc2Cl)c2nccc(-n3cnc(-c4cnn(C)c4)c3)c12 ?
6.28

Could you tell me which pIC50 is on file for CCNc1cc(-n2nc(C(F)(F)F)c3c(-n4cnc(-c5cnn(C)c5)c4)ccnc32)ccc1C(N)=O ?
6.77

----------
# Test system: SK-BR-3 cells
# ASSAY: Measurement of cell growth inhibition (crystal violet staining method)
# Assay type: cell-based
# EXPERIMENTAL SETUP: Homo sapiens; breast cancer SK-BR-3 cells, 72 hr culture with test substance
ENDPOINT LABEL: log10(IC50) (log10 of the value in nM)
log10 IC50, nM

Could you tell me which log10(IC50) is on file for CCNc1cc(-n2nc(C(C)C)c3c(-n4cnc(-c5cccnc5)c4)ccnc32)ccc1C(N)=O ?
2.45

Could you tell me which log10(IC50) is on file for Cc1cn(-c2ccc(C(N)=O)c(NC3CCOCC3)c2)c2nccc(-c3cnc4ccccc4c3)c12 ?
2.30

Could you tell me which log10(IC50) is on file for Cn1cc(-c2cn(-c3ccnc4c3c(C(F)(F)F)nn4-c3ccc(C(N)=O)cc3Br)cn2)cn1 ?
2.57

Could you tell me which log10(IC50) is on file for CCNc1cc(C(N)=O)ccc1-n1nc(C(F)(F)F)c2c(-n3cnc(-c4cnn(C(C)C)c4)c3)ccnc21 ?
2.85

Could you tell me which log10(IC50) is on file for CCc1cc(C(N)=O)ccc1-n1nc(C(C)C)c2c(-n3cnc(-c4cccnc4)c3)ccnc21 ?
2.43

Could you tell me which log10(IC50) is on file for Cc1cn(-c2ccc(C(N)=O)c(N[C@H]3CC[C@H](N)CC3)c2)c2nccc(-c3cnc4ccccc4c3)c12 ?
2.56

Could you tell me which log10(IC50) is on file for Cc1cn(-c2ccc(C(N)=O)c(N[C@@H]3CCCC[C@H]3N)c2)c2nccc(-c3cnc4ccccc4c3)c12 (relative stereo) ?
2.77

Could you tell me which log10(IC50) is on file for CCNc1cc(-n2nc(C(C)C)c3c(-n4cnc(-c5cn[nH]c5)c4)ccnc32)ccc1C(N)=O ?
2.04

Could you tell me which log10(IC50) is on file for CNc1cc(-n2nc(C(C)C)c3c(-n4cnc(-c5cnn(C)c5)c4)ccnc32)ccc1C(N)=O ?
2.69

Could you tell me which log10(IC50) is on file for CC(C)c1nn(-c2ccc(C(N)=O)c(NCCN3CCOCC3)c2)c2nccc(-c3cnc4ccccc4c3)c12 ?
2.00

Could you tell me which log10(IC50) is on file for CC(C)NC(=O)c1ccc(-c2cn(-c3ccnc4c3c(C(C)C)nn4-c3ccc(C(N)=O)cc3Cl)cn2)cc1 ?
3.12

Could you tell me which log10(IC50) is on file for CCNc1cc(-n2nc(C(F)(F)F)c3c(-n4cnc(-c5cccnc5)c4)ccnc32)ccc1C(N)=O ?
1.90

Could you tell me which log10(IC50) is on file for CC(C)c1nn(-c2ccc(C(N)=O)c(N(O)C3CCCCC3)c2)c2nccc(-n3cnc(-c4cnn(C)c4)c3)c12 ?
1.00

Could you tell me which log10(IC50) is on file for CC(C)c1nn(-c2ccc(C(N)=O)c(Nc3ccc(N4CCOCC4)cc3)c2)c2nccc(-c3cnc4ccccc4c3)c12 ?
1.85

Could you tell me which log10(IC50) is on file for CC(C)c1nn(-c2ccc(C(N)=O)cc2Cl)c2nccc(-c3cnc4ccccc4c3)c12 ?
2.83

Could you tell me which log10(IC50) is on file for CCNc1c(C(N)=O)ccc(-n2nc(C(C)C)c3c(-n4cnc(-c5cnn(C)c5)c4)ccnc32)c1CC ?
2.18

Could you tell me which log10(IC50) is on file for Cn1cc(-c2cn(-c3ccnc4c3c(C(F)(F)F)nn4-c3ccc(C(N)=O)cc3NC3CCC3)cn2)cn1 ?
1.85

Could you tell me which log10(IC50) is on file for Cc1cn(-c2ccc(C(N)=O)c(NCCCCO)c2)c2nccc(-c3cnc4ccccc4c3)c12 ?
2.96

----------
Please respond with reported IC50 for every item in the list.
# MEASUREMENT TARGET: human HSP90 alpha protein (HSP90 N-terminal protein, amino acids 2-236) (Homo sapiens (Human), UniProt P07900)
# ASSAY: Measurement of HSP90-binding activity (AlphaScreen competitive assay, biotin-labeled geldanamycin)
# EXPERIMENTAL SETUP: concentration inhibiting binding of biotin-labeled geldanamycin (40 nM) to purified HSP90 to 50% of control; read-out: HSP-binding activity IC50

Could you tell me which IC50 is on file for CN(C)c1cc(C(N)=O)ccc1-n1nc(C(F)(F)F)c2c(-n3cnc(-c4cnn(C)c4)c3)ccnc21 ?
210 nM

Could you tell me which IC50 is on file for CC(C)c1nn(-c2ccc(C(N)=O)cc2Cl)c2nccc(-c3cnc4ccccc4c3)c12 ?
510 nM

Could you tell me which IC50 is on file for CC(C)c1nn(-c2ccc(C(N)=O)c(NC3CCC(O)CC3)c2)c2nccc(-n3cnc(-c4cnn(CCOCc5ccccc5)c4)c3)c12 (stereo not shown) ?
470 nM

Could you tell me which IC50 is on file for CCNc1c(C(N)=O)ccc(-n2nc(C(C)C)c3c(-n4cnc(-c5cnn(C)c5)c4)ccnc32)c1C ?
120 nM

----------
# MEASUREMENT TARGET: human HSP90 alpha protein (HSP90 N-terminal protein, amino acids 2-236) (Homo sapiens (Human), UniProt P07900)
# ASSAY: Measurement of HSP90-binding activity (AlphaScreen competitive assay, biotin-labeled geldanamycin)
# EXPERIMENTAL SETUP: concentration inhibiting binding of biotin-labeled geldanamycin (40 nM) to purified HSP90 to 50% of control; read-out: HSP-binding activity IC50
ENDPOINT LABEL: pIC50
Quick note: pIC50 values are minus log10 of concentrations in mol/L.

Could you tell me which pIC50 is on file for NC(=O)c1ccc(-n2nc(C(F)(F)F)c3c(-n4cnc(-c5cccnc5)c4)ccnc32)cc1N [Example 176] ?
6.38

Could you tell me which pIC50 is on file for CCNc1cc(-n2nc(C(C)C)c3c(-n4cnc(-c5cnn(C)c5)c4)ccnc32)ccc1C(N)=O [Example 109] ?
6.74

Could you tell me which pIC50 is on file for CC(C)c1nn(-c2ccc(C(N)=O)c(N[C@H]3CC[C@H](O)CC3)c2)c2nccc(-c3cnc4c(ccn4C)c3)c12 [Example 14] ?
6.16
